# target.or.test.system: SARS-CoV-1 S protein (SARS-CoV-1, UniProt P59594 14-1195)
# protocol: ELISA
measure.name: binding result

- binder: "Omi34 (antibody, V domains shown) VH: QVQLVQSGAEVKKPGSSVKVSCKASGGTFSSYGIRWVRQAPGQGLEWMGGIIPVFGATNYAQKFQDRVTITADKSTATAYMELSSLKSDDTAVYFCARDALSASGWTGPFDSWGQGTLVTVSS VL: QSVLTQPPSVSGAPGQRVTISCTGSSSNIGADYDVHWYQQLPGAAPKLLIYGNNNRPSGVPDRFSGSKSGTSASLAITGLQAEDEADYYCQSYDSSQNAFYVFGTGTKVTVL"
  binding result: "no binding"
- binder: "Omi16 (antibody, V domains shown) VH: EVQLVESGGGVVQPGGSLRLSCAASGIIVSANYMTWVRQAPGKGLEWVSVIYPGGSTFYADSVKGRFTISRDNSKNTLYLQMNSLRVEDSAVYYCARDLELAGFNDFWGQGTLVTVSS VL: DVVMTQSPGTLALSPGERATLSCRTSQSVSSNYLAWYQQKPGQAPRLLIYGASSRATGIPDRFSGSGSGTDFTLTISRLEPEDFAVYYCQQFGSSPRYTFGQGTKVEIK"
  binding result: "no binding"
- binder: "Omi08 (antibody, V domains shown) VH: EVQLVESGAEVKRPGASVKVSCKASGYTFTNYFMHWVRQAPGQGLEWMGVINPSDGGASYPQKFQGRVTMTRDTSTSTVYMDLSSLRSEDTAVYSCARGAFDVSGSWYVPFDYWGQGTLVTVSS VL: QSVVTQPPSVSGAPGQRVTISCTGSSSNIGAGYDVHWYQQLPGAAPKLLIYGNTNRPSGVPDRFSGSKSGTSASLAITGLQAEDEADYYCQSYDITLSGSGYVFGTGTKVTVL"
  binding result: "no binding"
- binder: "Omi27 (antibody, V domains shown) VH: EVQLLESGGGLVQPGGSLRLSCVASGLTVSSNYMSWVRQAPGKGLEWVSIIYPGGTTYYADSVKGRFTTSRDKSKNTLYLQMNSLRAEDTAVYYCARDLAVAGGMDVWGQGTTVTVSS VL: EIVMTQSPSSLSASVGDRVTITCRASQGIGNDLGWYQQKPGKAPKVLIYAASNLQSGVPSRFSGSGSGTDFTLTISSLQPEDFATYYCLQDSNYPYTFGQGTKVEIK"
  binding result: "no binding"
- binder: "Omi06 (antibody, V domains shown) VH: EVQLLESGPGLVKPSETLSLTCTVSGGSISRYSWSWIRQPAGRGLEWIGRMYSSGGTNYNPSLESRVTMSLDTSKKQFSLKLSSVTAADTAVYYCAAASIDQVWGTYRDAFDIWGQGTMVTVSS VL: AIRMTQSPSSLAASVGDRVTISCRAGQSISSFLHWYQQKVGKAPKLLIYDASSLQSGVPSRFSGSGSGTDFTLTISSLQPEDFAAYYCQQSYENPLTFGGGTKVDIK"
  binding result: "no binding"
- binder: "Omi12 (antibody, V domains shown) VH: EVQLVESGPEVKKPGTSVKVSCKASGFSFSMSAMQWVRRARGQRLEWIGWIVPGSGNANYAQKFQERVTITRDESTNTGYMELSSLRSEDTAVYYCAAPHCNKTNCYDAFDIWGQGTMVTVSS VL: AIRMTQSPGTLSLSPGERATLSCRASQSVRSSYLAWYQQKPGQAPRLLIYGASTRATGIPDRFSGSGSGTDFILTINRLEPEDLAVYYCQQFGSSPWTFGQGTKVDIK"
  binding result: "no binding"
- binder: "Omi23 (antibody, V domains shown) VH: QVQLQESGPGLVKSSQTLSLTCTVSGDSISRGGYYWSWIRQHPGKGLEWIGSIYYSGSTYYNPSLKSRFTISVDTSKNQFSLKLSSVTAADTAVYHCAREIGFLDYWGQGTLVTVSS VL: AIQMTQSPSSLSASVGDRVTITCRASQAISNSLAWYQQKPGKAPKLLLYAASTLESGVPSRFSGSGSGTDFTLTISSLQPEDFATYFCQQYYSTPPRTFGQGTKVDIK"
  binding result: "no binding"
- binder: "Omi18 (antibody, V domains shown) VH: QVQLVESGGGLIQPGGSLRLSCAASGITVSSNYMTWVRQAPGKGLEWVSLLYAGGSAFYADSVKGRFTISRDNSKNTLYLLMNSLRVGDTAVYYCARDLQVYGMDVWGQGTTVTVSS VL: SYELTQPPSVSVAPGQTARITCGGNNDGAKSVHWYQQKPGQAPVLVVYDDSDRPSGIPERFSGSNSGNTATLTITRIEAGDEADYYCQVWDSSRDHVFGTGTKVTVL"
  binding result: "no binding"
- binder: "Omi26 (antibody, V domains shown) VH: QVQLVQSGTEVKKPGASVKVSCKASDYTFTRFGIIWVRQAPGQGLEWMGQINPYNGNTDYAQKFQGRVTLTTDTSTNTAYMELRSLRSDDTAVYYCARSAGSPTGLDYWGQGTLVTVSS VL: QSVVTQPPSVSEAPRQRVTISCSGSNSNIGNNAVNWYQQLPGKAPKLLVYYDDLLPSGVSDRFSGSKSGTSASLAISGLQSEDKADYYCAAWDDSLNALVFGGGTKLTVL"
  binding result: "no binding"

Lab note: next binder to report on.
Ask: If you can, please state the reported binding result value of Omi28 (antibody, V domains shown) VH: EVQLVESGGGLVQPGGSLRLSCAASGVIVSSNYMSWVRQAPGKGLQWVSVIYSGGSTFYADSVKGRFTISRDNSKNTLYLQMNSLRAEDTAVYYCARDLLEAGGTDYWGQGTLVTVSS VL: DVVMTQSPGTLSLSPGERATLSCRASQFIGSSYLAWYQQKPGQAPRLLIYGASNRATGVPDRFSGSGSGTDFTLTISRLEPEDFAVYYCQQYGSAPGTFGQGTKVEIK .
Reply: no binding

Data provenance is patent US20250154231A1.
